Tested on: M14
Experiment: NCI tumour cell line growth inhibition, 48 h
Calls of active or inactive are those of the source. Cut-off read from the data, not from the text of the source: active = GI50 up to about 1.1 µM and inactive = higher.
Parameter call: string, one of yes (1) for active, no (0) for inactive

Q: What classification did Cc1cc(NS(=O)(=O)c2ccc(NC(=O)c3ccc4nc5ccccc5c(Nc5ccc(S(=O)(=O)Nc6cc(C)on6)cc5)c4c3)cc2)no1 end up with in this test?
Ans: no (0)

Q: What classification did Cc1cnc(Cl)nc1C(C#N)c1nc2ccccc2n1C (configuration not stated) end up with in this test?
Ans: no (0)

Q: What classification did CCN(CC)CCNc1ccc2ncn3c4cc(O)ccc4c(=O)c1c23 end up with in this test?
Ans: no (0)

Q: What classification did O=C(O)CC1NC(/C(=C/c2ccccc2O)NC(=O)c2ccccc2)OC1=O (configuration not stated) end up with in this test?
Ans: no (0)

Q: What classification did Oc1cc(-c2ccc(F)cc2)nc2ncc(Cl)cc12 end up with in this test?
Ans: no (0)

Q: What classification did CCN(CC)c1ccc(/C=C/C2=NN(c3cccc(S(=O)(=O)O)c3)C3(C2)C(Cl)C(=O)N3c2nc3ccccc3s2)cc1 (configuration not stated) end up with in this test?
Ans: no (0)

Q: What classification did COC(=O)/C=C\n1ncc(=O)[nH]c1=O end up with in this test?
Ans: no (0)

Q: What classification did CN(C)c1ccc(/C=C(/C(=O)O)c2csc(-c3nc(/C(=C\c4ccc(N(C)C)cc4)C(=O)O)cs3)n2)cc1 end up with in this test?
Ans: no (0)

Q: What classification did CC(CO)(CO)/N=C/c1cc(I)cc(I)c1O end up with in this test?
Ans: no (0)

Q: What classification did Nc1nc(SCCC/C=C/I)nc2c1ncn2C1OC(COP(=O)(O)O)C(O)C1O (configuration not stated) end up with in this test?
Ans: no (0)

Q: What classification did CCCCSc1nsc(N(C(=O)c2ccccc2)C(=O)c2ccccc2)n1 end up with in this test?
Ans: no (0)

Q: What classification did CCCCCCCCCCCCC(Br)C(=O)SCCNC(=O)CCNC(=O)[C@@H](O)C(C)(C)COP(=O)(O)OP(=O)(O)OCC1OC(n2cnc3c(N)ncnc32)C(O)C1OP(=O)(O)O (some centres not stated) end up with in this test?
Ans: no (0)

Q: What classification did OCC(O)C(O)C(O)c1nn(-c2ccc(F)cc2)c2nc3cc(Cl)c(Cl)cc3nc12 (configuration not stated) end up with in this test?
Ans: no (0)

Q: What classification did C/C=C\C1OC1(C)c1cc(=O)c2c(C)cc3c(c2o1)C(=O)c1c(O)c(C2CC(C)(N(C)C)C(OC(C)=O)C(C)O2)cc(C2CC(N(C)C)C(O)C(C)O2)c1C3=O (configuration not stated) end up with in this test?
Ans: yes (1)

Q: What classification did CC1C(=O)CC[C@@]2(C)C(=O)CCCC12O (some centres not stated) end up with in this test?
Ans: no (0)

Q: What classification did ClC1=NSSC1(Cl)Cl end up with in this test?
Ans: no (0)

Q: What classification did CC(C)/C(Cl)=N/OC(=O)Nc1ccc(F)c(Cl)c1 end up with in this test?
Ans: no (0)

Q: What classification did COC1/C=C\C=C(/C)C(=O)Nc2cc3nc4ccc(Br)cc4oc-3c(c2=O)CC(C)CC(OC)C(O)C(C)/C=C(\C)C1OC(N)=O (configuration not stated) end up with in this test?
Ans: yes (1)

Q: What classification did CCc1cccc(C(C)C)c1NC(=O)C(=O)Nn1c(S)nc2ccccc2c1=O end up with in this test?
Ans: no (0)

Q: What classification did C=C(C)C(=O)/N=C(\N)NC#N end up with in this test?
Ans: no (0)

Q: What classification did O=C(/C=C/c1cccc2ccccc12)c1ccccc1 end up with in this test?
Ans: no (0)

Q: What classification did COc1ccc(OC)c(-c2nc3n(c2/C=C2/C(=O)Nc4ccccc42)CCS3)c1 end up with in this test?
Ans: no (0)

Q: What classification did CC(C)[Si](OC/C(=C/COC(C)(C)C)[C@H]1CC=C(C(=O)c2ccccc2N2CN(C)C(=O)N(C)C2)C1)(C(C)C)C(C)C end up with in this test?
Ans: no (0)

Q: What classification did NC1(CCCCCCCCCCC(=O)O)CNCCNCCNCCNC1 end up with in this test?
Ans: no (0)

Q: What classification did Cc1csc(NC23CC4CC(CC(C4)C2)C3)[n+]1C(P(=O)([O-])O)P(=O)(O)O (configuration not stated) end up with in this test?
Ans: no (0)

Q: What classification did CCC1c2[nH]c3ccccc3c2C[C@H]2C(=O)NC(C)C(=O)N12 (some centres not stated) end up with in this test?
Ans: no (0)

Q: What classification did O=P1(N(CCCl)CCCl)Oc2c(Cl)cc(Cl)c(Cl)c2Cc2c(Cl)c(Cl)cc(Cl)c2O1 end up with in this test?
Ans: no (0)

Q: What classification did O=C(O)CCC(=O)Nc1ccc2c(c1)S(=O)(=O)N(CC(=O)O)C2=O end up with in this test?
Ans: no (0)

Q: What classification did Cc1sc2nc3n(sc4nc5sc(C)c(C)c5c(=O)n43)c(=O)c2c1C end up with in this test?
Ans: no (0)

Q: What classification did O=c1n(-c2ccccc2)c(=O)n2n1C1C=CC2C2C(C1)C2(Cl)Cl (configuration not stated) end up with in this test?
Ans: no (0)

Q: What classification did CN1C(=O)C2(Cc3cn(C45CC67SSC(CO)(C(=O)N6C4Nc4ccccc45)N(C)C7=O)c4ccccc34)SSC1(CO)C(=O)N2C (configuration not stated) end up with in this test?
Ans: yes (1)

Q: What classification did COC(=O)C12CC(C3CC31)C1CC12 (configuration not stated) end up with in this test?
Ans: no (0)

Q: What classification did CCN(CC)C(=S)SC1CCOP(=O)(N(CCCl)CCCl)N1C (configuration not stated) end up with in this test?
Ans: no (0)

Q: What classification did COc1ccc(-n2c(CCC(=O)O)nc3c2C(=O)c2ccccc2C3=O)cc1 end up with in this test?
Ans: no (0)

Q: What classification did C[N+]1([O-])[C@H]2CC(OC(=O)[C@H](CO)c3ccccc3)C[C@H]1[C@H]1O[C@H]12 (some centres not stated) end up with in this test?
Ans: no (0)

Q: What classification did COc1cc(CNc2cnc3ccc(N)cc3n2)cc(OC)c1OC end up with in this test?
Ans: no (0)

Q: What classification did C1=N\c2ccc(cc2)/N=C\c2ccccc2OCc2cccc(n2)COc2ccccc2/1 end up with in this test?
Ans: no (0)
